Recorded values, source patent US20090175881A1.

# targetDesc: T1, cynomolgus monkey IL-17A (cynomolgus monkey, UniProt A0A2K5TTB0 24-155)
# T1 construct: also called cyno IL-17A; cyno IL-17
# T1 sequence: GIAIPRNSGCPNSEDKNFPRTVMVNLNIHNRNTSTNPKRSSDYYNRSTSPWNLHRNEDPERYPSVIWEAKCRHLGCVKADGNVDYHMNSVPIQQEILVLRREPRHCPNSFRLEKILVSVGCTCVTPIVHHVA
# methodNotes: KinExA, solution equilibrium
Property: pKd; scope: individual binders
Please report pKd as the negative decimal logarithm of the molar concentration, giving only the number.

binder: rat 16C10 (antibody, rat IgG1, V domains shown, also called 16C10C; antibody 16C10) VH: QVELRESGPGLVQPSQTLSLTCTVSGFSLPSHSVSWIRQPPGKGLEWMGIIWNNGGTDYNSAFKSRLTISRDTSKSQVFLKMNSLQTEDTAMYFCARNMYITDYYYENYFMDAWGQGASVTVSS VL: DIVMTQSPSSLAVSIGETVTLNCKSSQSLLFSENQKNYLAWYQHKSGQSPKLLVYWTSTRQSGVPDRFMGSGSGTDFTLTISSVQAEDLAIYYCQQSYYTPYTFGAGTKLELKR
pKd: 11.77
//
binder: rat 1D10 (antibody, V domains shown, Parental rat monoclonal antibody; also called ID10; anti-IL-17A antibody 1D10) VH: QVQLKESGPGLVQPSQTLSLTCTVSGFSLTNYYVHWVRQPPGKGLEWMGGVWNDGDTSYNSVLRSRLSITRDTSKSQVLLKMSSLQTEDTATYYCAREGREGFVGYYVMDAWGPGASVTVSS VL: DIQMTQSPSFLSASVGERVTLSCKASQNINKYLDWFQQKLGEAPKLLIYNADNLHTGIPSRFSGSGSFSDFILTISSLQPEDDATYFCLQRESWPYTFGAGTKLELKR
pKd: 11.01
//
binder: rat 23E12 (antibody, V domains shown, Parental rat monoclonal antibody (hybridoma PTA-7740)) VH: QVQLKESGPGLVQPSQTLSLTCTVFGFSLTNNGVTWVRQPPGKGLEWIAEVSSGGSTDYNSALKSRLSISRDTSKSQVFLRMNSLQTEDTAIYFCARQEVFTGLLDYWGQGVMVTVSS VL: DIQMTQSPASLSASLGETVTIQCQASEDIYSGLAWYHQKPGKSPQLLILGASRLHDGVPSRFSGSGSGIEYSLKINNMQTEDEGIYFCQQGLKYPPTFGGGTKLELKR
pKd: 10.55

Prompt line: Sample rat 30C10 (antibody, V domains shown, Parental rat monoclonal antibody (hybridoma PTA-7739); also called 30C10C) VH: EVQLVESGGGLVQPGRSQKLSCVVSGFTFNNYWMTWIRQAPGKGLEWVASVSNTGSSTYYPASVKGRFTISRDNAKSTLYLQMNSLRSEDTATYYCTREGAYYLDYWGQGVMVTVSS VL: DIVMTQSPSSLAVSPGETVTINCKSSQSLFWSESHMNYLAWYQQKPGQSPKLLIYYASTRQSGVPDRFIGSGSGTDFTLTISGVQAEDLAVYYCHHHYDSHTFGAGTKLELKR — what was its pKd?
Response line: 10.49
